measurement.notes: Pharmacokinetic assay in Balb/c mice (plasma and brain tissue)
Type: in vivo
study.conditions: male, Balb/c, mouse, in vivo, po, 5 mg/kg
property: Area under curve AUC0-t (ng·h/mL)
Dear colleague, please return just the value in ng·h/mL, with no unit written.

As a guide, the following entries are already answered.
molecule: C[C@@]1(O)CC[C@@]2(F)[C@H](CC[C@H]3[C@@H]4CC[C@H](C(=O)Cn5ccc(C(F)(F)F)n5)[C@@]4(C)CC[C@@H]32)C1 [Example 5]
output.unit: ng·h/mL
Area under curve AUC0-t: 470.9
//
molecule: C[C@@]1(O)CC[C@]2(F)C3CC[C@]4(C)[C@@H](C(=O)Cn5cc(C#N)c(Cl)n5)CC[C@H]4[C@@H]3CC[C@@H]2C1 (stereo partly shown) [Example 51]
output.unit: ng·h/mL
Area under curve AUC0-t: 1625.9
//
molecule: C[C@@]1(O)CC[C@@]2(F)[C@H](CC[C@H]3[C@@H]4CC[C@H](C(=O)CNc5ccc(F)cc5)[C@@]4(C)CC[C@@H]32)C1 [Example 23]
output.unit: ng·h/mL
Area under curve AUC0-t: 1067.1
//
molecule: C[C@@]1(O)CC[C@@]2(F)[C@H](CC[C@H]3[C@@H]4CC[C@H](C(=O)Cn5cc(C(F)(F)F)cn5)[C@@]4(C)CC[C@@H]32)C1 [Example 7]
output.unit: ng·h/mL
Area under curve AUC0-t: 5106.0
//
molecule: C[C@@]1(O)CC[C@]2(F)C3CC[C@]4(C)[C@@H](C(=O)CNc5ccc(F)cc5F)CC[C@H]4[C@@H]3CC[C@@H]2C1 (stereo partly shown) [Example 26]
output.unit: ng·h/mL
Area under curve AUC0-t: 722.9

Entry Cc1nn(CC(=O)[C@H]2CC[C@H]3[C@@H]4CC[C@@H]5C[C@](C)(O)CC[C@]5(F)[C@H]4CC[C@]23C)cc1C#N [Example 38] — recorded Area under curve AUC0-t = 1216.1

Entry C[C@@]1(O)CC[C@@]2(F)[C@H](CC[C@H]3[C@@H]4CC[C@H](C(=O)Cn5nc6ccc(F)cc6n5)[C@@]4(C)CC[C@@H]32)C1 [Example 18] — recorded Area under curve AUC0-t = 2141.1
